target: human CYP2C9 (Homo sapiens, UniProt P11712)
Sequence (P11712 whole entry): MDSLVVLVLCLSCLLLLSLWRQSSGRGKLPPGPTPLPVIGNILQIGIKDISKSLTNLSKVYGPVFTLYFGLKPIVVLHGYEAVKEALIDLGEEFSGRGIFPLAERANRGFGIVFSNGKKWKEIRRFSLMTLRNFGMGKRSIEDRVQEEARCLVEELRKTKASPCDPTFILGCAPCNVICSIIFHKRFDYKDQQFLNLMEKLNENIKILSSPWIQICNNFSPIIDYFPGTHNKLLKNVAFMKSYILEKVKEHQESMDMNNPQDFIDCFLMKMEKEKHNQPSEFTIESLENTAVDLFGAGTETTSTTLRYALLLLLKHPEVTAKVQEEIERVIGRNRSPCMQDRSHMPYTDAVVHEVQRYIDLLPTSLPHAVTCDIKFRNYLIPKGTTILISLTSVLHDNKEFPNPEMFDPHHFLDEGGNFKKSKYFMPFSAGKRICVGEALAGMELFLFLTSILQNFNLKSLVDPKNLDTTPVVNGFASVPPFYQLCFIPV
Parameter Measured: IC50 (µM)
One number for each entry, in µM.

Compound | Units | IC50
CSc1ccc(C(=O)C(C)(C)N2CCOCC2)cc1 | µM | 23.2
Oc1cc2ccccc2c2ccccc12 [9-Phenanthrol] | µM | 4.41

Provide IC50 for all items below, preserving their order.
1. Cc1ccc([N+](=O)[O-])[c]2c1[O][Hg]2 [Nitromersol]
2. C=CCOC(Cn1ccnc1)c1ccc(Cl)cc1Cl.O=S(=O)(O)O (centres unmarked) [Imazalil sulfate]
3. CC(=O)O.CC(C)c1ccc2c(c1)CC[C@H]1[C@](C)(CN)CCC[C@]21C [Dehydroabietylamine acetate]
4. CCOC(=O)c1c(C)n(C)c2ccc(O)cc12 [Mecarbinate]
5. COC(=O)c1c(C)cc(O)c(C)c1O
6. CCC(OC(C)=O)C(CC(C)NC)(c1ccccc1)c1ccccc1.Cl (centres unmarked)
7. CC(=O)c1ccc2ccc3ccccc3c2c1 [3-Acetylphenanthrene]

1. 0.87
2. 0.63
3. 42.2
4. 12.9
5. 50.2
6. 63
7. 11.6

Provide IC50 for all items below, preserving their order.
1. CCCCCCCCCCCCCCCCn1cc[n+](C)c1.[Cl-] [1-Hexadecyl-3-methylimidazolium chloride]
2. C=CC(=O)OCC(CO)(COCC(COC(=O)C=C)(COC(=O)C=C)COC(=O)C=C)COC(=O)C=C [Dipentaerythritol pentaacrylate]

55.4
7.3

Provide IC50 for all items below, preserving their order.
1. N=C(Nc1ccccc1)Nc1ccccc1 [1,3-Diphenylguanidine]
2. CN1CCN(C2Cc3ccccc3Sc3ccc(Cl)cc32)CC1.O=C(O)/C=C\C(=O)O (centres unmarked) [Octoclothepine maleate]
3. CCNc1nc(Cl)nc(NC(C)(C)C)n1 [Terbutylazine]

53.1
30.6
0.62
